Listed below: ΦΔ355 nm values for each entry.
# protocol_details: quantum yield for singlet oxygen production from 1O2 luminescence at 1268 nm
# Type: physicochemical
# assay_context: 355 nm excitation, Table 3, not marked MeOD

Some molecules with known ΦΔ355 nm results, for comparison:
{"columns": ["molecule", "ΦΔ355 nm"],
 "data": [
  ["NCC(=O)[O][Ir]([c]1ccc2ccccc2c1-c1nc2ccccc2s1)[c]1ccc2ccccc2c1-c1nc2ccccc2s1 [BSN-G]", "0.54 ± 0.02"],
  ["CC1=CC(c2ccccc2)=c2ccc3c4c2[N]1[Pt]([CH3])([CH3])[N]4C(C)=CC=3c1ccccc1 [(PhenPh2)PtMe2]", 0],
  ["CC(=O)C=C(C)[O][Ir]([c]1ccccc1-c1nc2ccccc2o1)[c]1ccccc1-c1nc2ccccc2o1 [(bo)2Ir(acac)]", "0.76 ± 0.06"],
  ["c1ccc(-c2cccc[c]2[Ir]([c]2ccccc2-c2ccccn2)[c]2ccccc2-c2ccccn2)nc1 [(ppy)3Ir]", "0.92 ± 0.07"],
  ["CC(=Nc1cc(C)cc(C)c1)C(C)=Nc1cc(C)cc(C)c1.[CH3][Pt][CH3] [(CyPh2)PtMe2]", 0]
]}

Qu. Which value of ΦΔ355 nm has been reported for [CH3][Pt]1([CH3])[N]2C=CC=c3ccc4c(c32)[N]1C=CC=4 [(Phen)PtMe2] in the records?
Ans. 0

Qu. Data request, read-out ΦΔ355 nm, for [CH3][Pt][CH3].c1ccc(-c2ccccn2)nc1 [(bpy)PtMe2]
Ans. 0

====

# protocol_details: quantum yield for singlet oxygen production from 1O2 luminescence at 1268 nm
# Type: physicochemical
# assay_context: 532 nm excitation; only measured if compounds absorb at 532 nm
Each item that follows carries a reported ΦΔ532 nm.
Hey, just send me the number, nothing else.

Qu. Data request, read-out ΦΔ532 nm, for [CH3][Pt][CH3].c1ccc(-c2ccccn2)nc1
Ans. 0

Qu. Looking for the measured ΦΔ532 nm of [CH3][Pt]1([CH3])[N]2C=CC=c3ccc4c(c32)[N]1C=CC=4 , can you help?
Ans. 0

Qu. Given the entry NCC(=O)[O][Ir]([c]1ccc2ccccc2c1-c1nc2ccccc2s1)[c]1ccc2ccccc2c1-c1nc2ccccc2s1 , report its measured ΦΔ532 nm.
Ans. 0.81

Qu. # input compound: CC1=CC(c2ccccc2)=c2ccc3c4c2[N]1[Pt]([CH3])([CH3])[N]4C(C)=CC=3c1ccccc1 ; wanted: its ΦΔ532 nm
Ans. 0

Qu. // ΦΔ532 nm lookup, key: CC(=Nc1cc(C)cc(C)c1)C(C)=Nc1cc(C)cc(C)c1.[CH3][Pt][CH3]
Ans. 0
